- assay.target: REV-ERBα LBD (human; residues 281-614 Δ324-422) (Homo sapiens, UniProt P20393, DEL324-422)
- Construct: 6×Histag-REV-ERBα LBD (human; residues 281-614 Δ324-422); made in house; host or cells: Escherichia coli
- Sequence (P20393 with tags, fused parts or gaps DEL324-422): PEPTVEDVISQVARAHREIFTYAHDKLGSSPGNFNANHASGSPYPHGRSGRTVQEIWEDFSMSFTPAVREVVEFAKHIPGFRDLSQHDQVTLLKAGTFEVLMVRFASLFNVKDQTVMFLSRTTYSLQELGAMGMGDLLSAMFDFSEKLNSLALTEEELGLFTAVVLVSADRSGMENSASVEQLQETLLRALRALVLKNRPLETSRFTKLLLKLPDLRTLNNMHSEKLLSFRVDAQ
- Sequence (Q9Y618 2335-2356 partner limits assumed): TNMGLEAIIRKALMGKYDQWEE
- measurement.notes: TR-FRET corepressor interaction assay (REV-ERBα LBD, FITC-SMRT peptide)
- Type: biochemical
- recorded.conditions: Table 2, read-out: REVERBα agonism (EC50 class, FRET assay)
assay.metric: EC50

As a guide, the following entries are already answered.
CC(C)(C)Cn1cc(CCNS(=O)(=O)C2CC2)c2ccc(-c3ccc(Cl)cc3Cl)cc21: < 500 nM
CN(C)S(=O)(=O)NCCn1cc(CC(F)(F)F)c2cc(Cl)ccc21: 500 to 3000 nM
CC(C)Cn1cc(CCNS(=O)(=O)N(C)C)c2ccc(-c3cn[nH]c3)cc21: < 500 nM
CC(C)Cn1cc([C@H](NS(=O)(=O)C2CC2)C(F)(F)F)c2cc(F)c(-c3ccn[nH]3)cc21: 500 to 3000 nM
CC(C)S(=O)(=O)n1cc(CCNS(=O)(=O)N(C)C)c2ccc(-c3ccncc3)cc21: > 3000 nM

For record "N#CC1(Cn2cc([C@H](NS(=O)(=O)C3CCC3)C(F)(F)F)c3cc(F)c(-c4ccccc4C(F)(F)F)cc32)CC1" the listed EC50 is < 500 nM

Input "CN(C)S(=O)(=O)NCCc1cn(Cc2cccc(Br)c2)c2cc(-c3ccncc3)ccc12" . Output EC50: < 500 nM

compound "CC(C)Cn1cc([C@H](NS(=O)(=O)N(C)C)C(F)(F)F)c2cc(F)c(C3CC3)cc21" , EC50 observed: < 500 nM

----------
- assay.target: REV-ERBα LBD (human; residues 281-614 Δ324-422) (Homo sapiens, UniProt P20393, DEL324-422)
- Construct: 6×Histag-REV-ERBα LBD (human; residues 281-614 Δ324-422); made in house; host or cells: Escherichia coli
- measurement.notes: TR-FRET corepressor interaction assay (REV-ERBα LBD, FITC-SMRT peptide)
- Assay type: biochemical
- recorded.conditions: Table 2, read-out: REVERBα agonism (EC50 class, FRET assay)
pEC50: −log10 of the molar value.
assay.metric: pEC50

So, "CC(C)Cn1cc(CCNS(=O)(=O)N(C)C)c2ccc(OCc3ccccc3)cc21" ? Its pEC50 was 5.52 to 6.30

----------
- assay.target: REV-ERBα LBD (human; residues 281-614 Δ324-422) (Homo sapiens, UniProt P20393, DEL324-422)
- Construct: 6×Histag-REV-ERBα LBD (human; residues 281-614 Δ324-422); made in house; host or cells: Escherichia coli
- measurement.notes: TR-FRET corepressor interaction assay (REV-ERBα LBD, FITC-SMRT peptide)
- Format: biochemical
- recorded.conditions: FITC-SMRT peptide, read-out: REVERBα agonism (EC50 class, FRET assay)
// EC50 lookup, one value per entry

CC(C)(C)Cn1cc([C@H](NS(=O)(=O)C2CC2)C(F)F)c2ccc(-c3c(C#N)cccc3C(F)(F)F)cc21: < 500 nM
CC(C)(C)Cn1cc([C@H](NS(=O)(=O)C2CC2)C(F)(F)F)c2cc(F)c(-c3cccc4c3CCCC4)cc21: 500 to 3000 nM

Please find the next compound below.
According to the records, this compound "C[C@H]1C[C@@H]1S(=O)(=O)N[C@@H](c1cn(CC(C)(C)C)c2cc(-c3ccccc3C(F)(F)F)ccc12)C(F)(F)F" displays EC50 of < 500 nM
